Test Target: CHI-1P
Measurement Protocol: SPR
Kd values by entry
Kindly provide the numeric value in nM only, without the unit symbol.

Consider the following illustrative entries.
Binder	Kd, nM
CCL1 (ligand) KSMQVPFSRCCFSFAEQEIPLRAILCYRNTSSICSNEGLIFKLKRGKEACALDTVGWVQRHRKMLRHCPSKRK	191
CCL18 (ligand) AQVGTNKELCCLVYTSWQIPQKFIVDYSETSPQCPKPGVILLTKRGRQICADPNKKWVQKYISDLKLNA	206
CCL16 (ligand) QPKVPEWVNTPSTCCLKYYEKVLPRRLVVGYRKALNCHLPAIIFVTKRNREVCTNPNDDWVQEYIKDPNLPLLPTRNLSTVKIITAKNGQPQLLNSQ	182
CCL22 (ligand) GPYGANMEDSVCCRDYVRYRLPLRVVKHFYWTSDSCPRPGVVLLTFRDKEICADPRVPWVKMILNKLSQ	25

Then there is this binder:
Kd recorded for this binder, CCL14 (ligand) TKTESSSRGPYHPSECCFTYTTYKIPRQRIMDYYETNSQCSKPGIVFITKRGHSVCTNPSDKWVQDYIKDMKEN , is 149
